This collection of values is drawn from patent US20020045780A1.

# Test system: polyamine transport apparatus
# procedureText: Competitive uptake determination: inhibition of [3H]spermidine transport into L1210 cells
# Assay type: cell-based, murine
# measurementSetup: analogue inhibition of spermidine transport
Where a name gives a salt, the structure may show the parent alone.
Binary call on Ki with cut-off 60 µM: strictly below means Y, and equality or higher means N.

{"molecule": "CCNCCCCCNCCCCNCC [DE(4,5), 3,8,14-Triazahexadecane Trihydrochloride]", "labelValue": "N"}
{"molecule": "CCCNCCCCCNCCCCCNCCC [DP(5,5), Trihydrochloride]", "labelValue": "N"}
{"molecule": "CCNCCCCNCCCCNCC [DEHSPD, Trihydrochloride]", "labelValue": "Y"}
{"molecule": "CCNCCCNCCCN", "labelValue": "Y"}
{"molecule": "CCNCCCCCNCCCCCNCC [DE(5,5), Trihydrochloride]", "labelValue": "N"}
{"molecule": "CCNCCCCNCCCNCC [DESPD, Trihydrochloride]", "labelValue": "Y"}
{"molecule": "CCCNCCCCCNCCCCNCCC [DP(4,5), 4,9,15-Triazaoctadecane Trihydrochloride]", "labelValue": "N"}
{"molecule": "NCCCCCNCCCCN [4,5-Triamine, 1,6,12-Triazadodecane Trihydrochloride]", "labelValue": "Y"}
{"molecule": "CCCNCCCNCCCCN [MPSPD(N1), N^1-Propylspermidine Trihydrochloride]", "labelValue": "Y"}
